Each recorded value in this set is attributed to ChEMBL document CHEMBL3797185.

Target: UniProtKB P0DMS8
Sequence (P0DMS8 whole entry): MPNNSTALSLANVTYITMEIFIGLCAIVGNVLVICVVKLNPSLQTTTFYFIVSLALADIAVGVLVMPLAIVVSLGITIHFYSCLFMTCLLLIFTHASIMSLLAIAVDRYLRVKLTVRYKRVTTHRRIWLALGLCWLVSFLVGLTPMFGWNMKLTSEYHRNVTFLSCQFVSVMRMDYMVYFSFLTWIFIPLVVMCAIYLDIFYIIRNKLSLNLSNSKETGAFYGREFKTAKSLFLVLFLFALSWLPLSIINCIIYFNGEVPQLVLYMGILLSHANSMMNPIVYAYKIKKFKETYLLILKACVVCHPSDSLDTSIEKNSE
Test: Displacement of [125I]-AB-MECA from human adenosine A3 receptor expressed in CHO cell membranes at 1 uM after 60 mins by scintillation counting method relative to control
Metric: inhibition (%)

Example entries and their recorded answers appear below.
{"columns": ["Sample smiles", "System", "inhibition [%]"],
 "data": [
  ["Nc1nc(-c2ccco2)nc2cn(-c3ccccc3)nc12", "UniProtKB P0DMS8", 39],
  ["COc1ccccc1-n1cc2nc(-c3ccco3)nc(N)c2n1", "UniProtKB P0DMS8", 37],
  ["Nc1nc(-c2ccco2)nc2cn(-c3ccccc3O)nc12", "UniProtKB P0DMS8", 36],
  ["Nc1nc(CCCc2ccccc2)nc2cn(-c3ccccc3O)nc12", "UniProtKB P0DMS8", 5],
  ["Nc1nc(Cc2ccccc2)nc2cn(Cc3ccccc3)nc12", "UniProtKB P0DMS8", 15],
  ["Cc1nc(N)c2nn(-c3ccccc3F)cc2n1", "UniProtKB P0DMS8", 8],
  ["Cn1cc2nc(CCCc3ccccc3)nc(N)c2n1", "UniProtKB P0DMS8", 30],
  ["Cc1nc(N)c2nn(CCc3ccccc3)cc2n1", "UniProtKB P0DMS8", 3],
  ["Nc1nc(Cc2ccccc2)nc2cn(-c3ccccc3O)nc12", "UniProtKB P0DMS8", 19],
  ["Cn1cc2nc(Cc3ccccc3)nc(N)c2n1", "UniProtKB P0DMS8", 1]
]}

P. Nc1nc(-c2ccco2)nc2cn(Cc3ccccc3)nc12
Q. Nc1nc(-c2ccco2)nc2cn(CCc3ccccc3)nc12
Among P and Q , which shows a numerically higher inhibition result? Give the label under which the chosen entry appears.
Q
(Q: 4%, P: 2%)

I. Cc1nc(N)c2nn(Cc3ccccc3)cc2n1
II. COc1ccccc1-n1cc2nc(CCCc3ccccc3)nc(N)c2n1
Given the two records I and II , choose the one whose inhibition value is lower. Give the label under which the chosen entry appears.
I
